Experiment: Mutant factor of the compound against mu-[K303E] with Opioid receptor kappa 1 for binding affinity
pKi: −log10 of the molar value.

Compound String | pKi
NC(N)=Nc1ccc2[nH]c3c(c2c1)C[C@@]1(O)[C@H]2Cc4ccc(O)c5c4[C@@]1(CCN2CC1CC1)[C@H]3O5 | 10.22

---

Consider the following compounds and their measured Ki readings.
Assay: Mutant factor against mu-[K303E] with Opioid receptor kappa 1 for binding affinity

Compound String | Unit Annotation | Ki
N#CN=C(N)Nc1ccc2[nH]c3c(c2c1)C[C@@]1(O)C2Cc4ccc(O)c5c4[C@@]1(CCN2CC1CC1)[C@H]3O5 | nM | 0.29
Oc1ccc2c3c1O[C@H]1c4[nH]c5c(c4C[C@@]4(O)[C@@H](C2)N(CC2CC2)CC[C@]314)C[C@@]1(O)[C@H]2Cc3ccc(O)c4c3[C@@]1(CCN2CC1CC1)[C@H]5O4 | nM | 0.77
